- Experimental System: PLA2G4A; note: test concentration or dose not given here
- Test Settings: ASO
These antisense oligonucleotides have a phosphorothioate backbone; sugars and methylation of C are not fully specified.
Would you kindly list remaining target (mRNA or protein) (fraction of control) for each of these sequences?

INSERT INTO assay_data (seq_text, result_value) VALUES
  ('TGAGCCCACTGTCCACTA', 0.26),
  ('GCCCAAAACTCTGTTGAA', 0),
  ('AGCACTCCTTCAGCCCTT', 0.29);

Field: remaining target (mRNA or protein) (fraction of control). Fill in for each record below.
1. TTTAGCCCACTTTTCTGC
2. GGTTGGGCAATCTTTCTC
3. GAACCAGAAACGCCCAAA
4. AAAGAGGTAAAGGGCATT
5. GATGGTTGGGCAATCTTT

0.07
≥ 1
≥ 1
≥ 1
≥ 1

Items follow; give remaining target (mRNA or protein) (fraction of control) for each.
1. CAGAAACGCCCAAAACTC
2. GAAAAGAGGTAAAGGGCA
3. CACTGCCCCAGACACCCA
4. TGAGATTCAAGCCCAGCA

1. 0.43
2. ≥ 1
3. ≥ 1
4. 0.41

# batch size: 4; output remaining target (mRNA or protein) (fraction of control) per entry
1. CCCCTTTGTCACTTTGGT
2. TGCCCCAGACACCCATTA
3. AGGCCATTATCATACGAT
4. AGTGGATGATGGTTGGGC

1. 0.33
2. 0.88
3. ≥ 1
4. ≥ 1

Please give remaining target (mRNA or protein) (fraction of control) for each item listed below.
1. ATCAAGGGATACGGCAGG
2. AAATAAGTCGGGAGCCAT
3. AGCCCACTGTCCACTACA
4. CTTGTTCATTTTAGCCCA
5. AAATCGTAGGTCTGGGCA
6. ACCAGAAACGCCCAAAAC
7. AGAGGTAAAGGGCATTGT

[0.51, "≥ 1", 0.2, "≥ 1", "≥ 1", 0.21, "≥ 1"]

// each sequence listed below needs its remaining target (mRNA or protein) (fraction of control)
1. TCGGGAGCCATAAAAGTA
2. GTTCATTTTAGCCCACTT
3. AAACGCCCAAAACTCTGT
4. TAAATGTGAGCCCACTGT
5. AAGGGATACGGCAGGTTA
6. CATTTTAGCCCACTTTTC
7. CCCCACCTGAACCCAATA
8. TTGTGAACCAGAAACGCC

["≥ 1", "≥ 1", "≥ 1", "≥ 1", "≥ 1", "≥ 1", "≥ 1", 0.08]

Below are some sequences; for each one, tell me its remaining target (mRNA or protein) (fraction of control).
1. ATAGCACTCCTTCAGCCC
2. ATGTGAGCCCACTGTCCA
3. CACTCCTTCAGCCCTTCC
4. GATGATGGTTGGGCAATC

1. ≥ 1
2. ≥ 1
3. ≥ 1
4. ≥ 1
